# system-name: APP-Avi-soluble human LOX-1(61-273) (human, UniProt P78380 61-273)
# assay-comment: competition ELISA: oxLDL binding to plate-bound biotinylated human sLOX-1
test-readout: pIC50
pIC50 is a log-scale quantity: -log10 of the concentration expressed in molar.

Would you please look over these solved cases?
binder="MOR020152 (antibody, human IgG1, lambda, L234A L235A, V domains shown, also called MOR20152) VH: QVQLVQSGAEVKKPGSSVKVSCKASGGTFSSYAISWVRQAPGQGLEWMGRIIPIFGGANYAQKFQGRVTITADESTSTAYMELSSLRSEDTAVYYCARDPLYRSDYYYHWFDFWGQGTLVTVSS VL: DIALTQPASVSGSPGQSITISCTGTSSDVGNFNYVSWYQQHPGKAPKLMIYGVNNRPSGVSNRFSGSKSGNTASLTISGLQAEDEADYYCAAYGWALDEVVFGGGTKLTVLG" observed_measurement=8.30
binder="MOR020148 (antibody, human IgG1, lambda, L234A L235A, V domains shown, also called MOR20148) VH: QVQLLESGGGLVQSGGSLRLSCAASGFTFRSGAAMHWVRQAPGKGLEWVSGISSFSSSTDYADSVKGRFTISRDNSKNTLYLQMNSLRAEDTAVYYCARNFKYAMDYWGQGTLVTVSS VL: DIALTQPASVSGSPGQSITISCTGTSSDVGSINYVSWYQQHPGKAPKMIYAVSYRPSGVSNRFSGSKSGNTASLTISGLQAEDEADYYCQVWDWRSDSRVFGGGTKLTVLG" observed_measurement=8.05
binder="MOR021460 (antibody, human IgG1, lambda, L234A L235A, V domains shown, also called MOR21460) VH: QVQLLESGGGLVQPGGSLRLSCAASGFTFSDYALHWVRQAPGKGLEWVSVISYQGGFIYYADSVKGRFTISRDNSKNTLYLQMNSLRAEDTAVYYCARSPGLTSYHDSWGQGTLVTVSS VL: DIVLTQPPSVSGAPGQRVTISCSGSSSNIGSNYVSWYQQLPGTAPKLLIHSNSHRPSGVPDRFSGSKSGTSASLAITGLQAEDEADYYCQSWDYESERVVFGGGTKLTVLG" observed_measurement=8.40

Find the recorded pIC50 belonging to MOR021435 (antibody, human IgG1, kappa, L234A L235A, V domains shown, also called MOR21435) VH: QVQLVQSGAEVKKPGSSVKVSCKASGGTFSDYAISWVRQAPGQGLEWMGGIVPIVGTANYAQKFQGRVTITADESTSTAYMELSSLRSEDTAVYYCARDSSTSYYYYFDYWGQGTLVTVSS VL: DIQMTQSPSSLSASVGDRVTITCRASQDINSWLAWYQQKPGKAPKLLIYQASNLQSGVPSRFSGSGSGTDFTLTISSLQPEDFATYYCQQMWQFPITFGQGTKVEIKR and report it.
8.55
